From: patent US4762821A

biological target: ACE from crude rabbit lung acetone powder (Oryctolagus cuniculus); construct: a preparation of ACE from crude rabbit lung acetone powder; from tissue; host or cells: rabbit lung (crude acetone powder); assay: in vitro ACE inhibition, hydrolysis of hippuryl-histidyl-leucine (HHL); format: biochemical; settings: substrate HHL; test compound studied at concentrations between 10^-9 to 10^-4 M
Sequence (P12822 34-1310): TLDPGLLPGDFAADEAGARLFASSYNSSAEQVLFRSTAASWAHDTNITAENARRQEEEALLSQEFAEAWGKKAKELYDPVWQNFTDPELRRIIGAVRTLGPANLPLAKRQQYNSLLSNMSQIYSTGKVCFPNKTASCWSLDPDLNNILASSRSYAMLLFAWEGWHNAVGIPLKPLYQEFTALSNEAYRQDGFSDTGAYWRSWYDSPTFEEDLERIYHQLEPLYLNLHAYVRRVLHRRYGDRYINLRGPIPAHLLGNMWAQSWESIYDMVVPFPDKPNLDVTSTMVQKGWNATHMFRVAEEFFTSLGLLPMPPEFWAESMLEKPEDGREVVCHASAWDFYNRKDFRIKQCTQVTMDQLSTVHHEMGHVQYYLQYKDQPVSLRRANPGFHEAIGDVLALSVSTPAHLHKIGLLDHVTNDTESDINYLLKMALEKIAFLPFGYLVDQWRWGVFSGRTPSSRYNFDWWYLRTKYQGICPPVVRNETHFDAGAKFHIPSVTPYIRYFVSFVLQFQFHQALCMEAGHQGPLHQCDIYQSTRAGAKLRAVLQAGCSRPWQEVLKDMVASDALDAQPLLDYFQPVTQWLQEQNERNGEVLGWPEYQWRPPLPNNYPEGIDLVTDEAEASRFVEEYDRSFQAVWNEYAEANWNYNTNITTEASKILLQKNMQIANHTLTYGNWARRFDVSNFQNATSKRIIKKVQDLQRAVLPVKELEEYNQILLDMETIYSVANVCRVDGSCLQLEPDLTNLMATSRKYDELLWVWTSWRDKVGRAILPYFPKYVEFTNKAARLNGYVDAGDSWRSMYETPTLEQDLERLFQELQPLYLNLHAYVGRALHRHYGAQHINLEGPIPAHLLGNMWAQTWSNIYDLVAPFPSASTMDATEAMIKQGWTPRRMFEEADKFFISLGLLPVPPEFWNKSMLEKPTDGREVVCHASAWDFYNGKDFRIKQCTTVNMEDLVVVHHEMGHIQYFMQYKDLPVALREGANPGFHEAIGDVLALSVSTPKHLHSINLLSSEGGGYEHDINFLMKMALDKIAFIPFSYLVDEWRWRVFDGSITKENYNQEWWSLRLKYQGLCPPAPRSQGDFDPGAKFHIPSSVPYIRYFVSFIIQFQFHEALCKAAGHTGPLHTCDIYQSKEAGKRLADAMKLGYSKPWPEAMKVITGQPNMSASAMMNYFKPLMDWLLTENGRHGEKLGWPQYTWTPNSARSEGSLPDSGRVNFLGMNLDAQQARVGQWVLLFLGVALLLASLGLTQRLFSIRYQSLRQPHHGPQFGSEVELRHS
Let's look at some compounds and their measured ID50 (dose which causes a 50% inhibition of the hydrolysis of HHL).
READOUT_KIND: ID50 (dose which causes a 50% inhibition of the hydrolysis of HHL) (nM)

> print(dat)
                                   compound  numeric.readout
1  CCCCNC(=NC)NCCCCC(NC(C)C(=O)N1CCC[C@H]1C(=O)O)C(=O)O (some centres unmarked)              280
2  CCN=C(NCC)NCCCC[C@H](N[C@@H](C)C(=O)N1c2ccccc2C[C@H]1C(=O)O)C(=O)O              180
3  CCN=C(NCC)NCCCC[C@H](N[C@@H](CC)C(=O)N1Cc2ccccc2C[C@H]1C(=O)O)C(=O)O               65
4  CCCCNC(=NC)NCCCC[C@H](N[C@@H](C)C(=O)N1Cc2ccccc2C[C@H]1C(=O)O)C(=O)O              220
5  CCN=C(NCC)NCCCCC(NC(CC)C(=O)N1CCC[C@H]1C(=O)O)C(=O)O (some centres unmarked)              230
6  C[C@H](N[C@@H](CCCCNC(=NCC(F)(F)F)NCC(F)(F)F)C(=O)O)C(=O)N1Cc2ccccc2C[C@H]1C(=O)O               90
7  CCCC(NC(CCCCNC(=NCC)NCC)C(=O)O)C(=O)N1CCC[C@H]1C(=O)O (some centres unmarked)               60
8  CCN=C(NCC)NCCCC[C@H](N[C@@H](C)C(=O)N1Cc2ccccc2C[C@H]1C(=O)O)C(=O)O               60
